pIC50: −log10 of the molar value.
Multiple publications report pIC50 for UniProt:O00763; what follows is a combined list.
assayReadout: pIC50

1. COC(=O)c1cncc(-c2ccc3c(c2)C(=O)OC2(CCN(C(=O)c4cc(OC)c5cccc(C6CC6)c5n4)CC2)C3)c1	6.13
2. CC(=O)NC(C)Cc1ccc(C#Cc2ccc(C(=O)NC(C)C)cc2)cc1 (stereo not shown)	5.36

a: CC(C(=O)NC1CC1)c1ccc(O[C@@H]2CCN(c3ncnc(OCC(C)(F)F)c3F)C2)cc1 (stereo partly shown)
b: CC(=O)N[C@@H](C)c1ccc(OC2CCN(c3ccc(O[C@H]4CCOC4)cc3)C2)cc1 (stereo partly shown)
INPUT: Lower pIC50: a or b ? Label of pick, please.
OUTPUT: b

###

pIC50: −log10 of the molar value.
Listing of pIC50 toward human ACC2 (Homo sapiens (Human)), each taken from a published source.
assayReadout: pIC50

1) C[C@H](NC(=O)[C@H]1C[C@H](F)C1)c1ccc(CN2Cc3ccc(OCC4CC4)cc3C(F)C2)cc1 (stereo partly shown)	7.35

a: C[C@H](NC(=O)c1cn[nH]c1)c1ccc(OC2CCN(c3ccnc(OCC4CC4)c3)C2)cc1 (stereo partly shown)
b: CC#CCCOc1cc(N2CC[C@@H](Oc3ccc([C@H](C)NC(C)=O)cc3)C2)ccn1
c: CC(=O)NC(C)Cc1ccc(C#Cc2ccnc(N3CCC3)n2)cc1 (stereo not shown)
INPUT: Given 3 compounds, produce a descending ranking by pIC50. Respond with an ordered listing of the labels, as requested.
OUTPUT: a, b, c
(a: 7.20, b: 6.41, c: 5.25)

###

Collected literature values of pIC50 measured for human ACC2 (Homo sapiens (Human), UniProt O00763).
pIC50: −log10 of the molar value.
assayReadout: pIC50

Some solved cases for reference:
1) CCNC(=O)N[C@@H](C)c1ccc(CN2Cc3ccc(OCC4CC4)cc3C(F)C2)cc1 (some centres unmarked)	7.31
2) CC(=O)Nc1cncc(C(=O)N[C@@H](C)c2ccc(OC3CCN(c4ccnc(OC(C)C)c4)C3)cc2)c1 (some centres unmarked)	6.00
3) CC(=O)N[C@@H](C)c1ccc(O[C@@H]2CCN(c3ccnc(OC4CCCC4)c3Cl)C2)cc1	7.28

a: CC(C#N)C(=O)N[C@@H](C)c1ccc(OC2CCN(c3ccnc(OCC(F)F)c3)C2)cc1 (some centres unmarked)
b: CCNC(=O)C(C)c1ccc(C#Cc2ccc(CNC(C)=O)cc2)cc1 (centres unmarked)
INPUT: Smaller pIC50 value, a vs b ? I would appreciate it if you answered with the label of your choice.
OUTPUT: b

A: CCOc1cccc(C#Cc2ccc(CC(C)NC(=O)C3CC3)cc2)c1 (centres unmarked)
B: CCOc1ccc(C#Cc2ccc(C(C)NC(=O)C3CC3)cc2)cc1 (centres unmarked)
C: COc1cnc(N2CC[C@@H](Oc3ccc([C@H](C)NC(C)=O)cc3)C2)c(Cl)c1
INPUT: Sort entries by pIC50 from minimum to maximum value. Please reply with the labels ordered as requested. Many thanks.
OUTPUT: A, B, C
(A: 5.42, B: 5.70, C: 6.16)

1: CCNc1ncc(C#Cc2ccc([C@H](C)NC(C)=O)cc2)cn1
2: CCC(=O)N[C@@H](C)c1ccc(CN2CC(=O)c3cc(OCC4CC4(F)F)ccc3C2)cc1 (some centres unmarked)
3: C=CCNC(=O)C(C)c1ccc(O[C@@H]2CCN(c3ncnc(OCC(C)(F)F)c3F)C2)cc1 (some centres unmarked)
INPUT: List by increasing pIC50. Use the labels to give the ranking in the order requested.
OUTPUT: 1, 3, 2

A: CC(=O)NCCC[C@H]1OC[C@H](Oc2ccc(OC(C)C)cn2)CO1
B: COc1ncc(C#Cc2ccc(CC(C)NC(=O)C3CC3)cc2)c(OC)n1 (centres unmarked)
C: Cc1cc(C(=O)N[C@@H](C)c2ccc(O[C@@H]3CCN(c4ccc(OCC5CC5)cc4)C3)cc2)no1
D: Cc1ccc(-c2ccc(Cl)c(Cl)c2)cc1-c1c(O)c2ccc(Cl)cc2[nH]c1=O
INPUT: hey, can you rank those compounds up there by pIC50? biggest number first please Sort the labels as requested; that list is your answer.
OUTPUT: C, A, B, D

###

Several reports have described pIC50 for human ACC2 (Homo sapiens (Human), UniProt O00763); a selection of those results is presented here.
pIC50: −log10 of the molar value.
assayReadout: pIC50

In the examples that follow, each entry is paired with its recorded pIC50.
1) CC(=O)NC(C)Cc1ccc(C#Cc2cccc(C(=O)N(C)c3ccccc3)c2)cc1 (centres unmarked)	5.17
2) C[C@H](NC(=O)c1c[nH]nc1C#N)c1ccc(O[C@@H]2CCN(c3ccc(OCC4CC4)cc3)C2)cc1	6.91
3) CCOc1ccc(C#Cc2ccc(C(C)NC(=O)N(C)C)cc2)cc1 (centres unmarked)	6.21
4) CC(=O)Nc1cc(C(=O)N[C@@H](C)c2ccc(OC3CCN(c4ccc(OCC5CC5)cc4)C3)cc2)on1 (some centres unmarked)	6.44
5) CC(=O)NC(C)CCc1ccc(C2CN(c3ccc(OCC4CC4)cc3)C2)cc1 (centres unmarked)	6.72
6) CC(=O)NC(C)Cc1ccc(C#Cc2ccc(-c3ccc(C)cc3)cn2)cc1 (centres unmarked)	6.41
7) CC(=O)N[C@@H](C)c1ccc(O[C@@H]2CCN(c3nccc(N4CCCC4)c3F)C2)cc1	6.70
8) CCNC(=O)C(C)c1ccc(C#Cc2ccc(OC(C)C)cc2)cc1 (centres unmarked)	6.59
9) CC(Cc1ccc(C#Cc2cnc(N3CCC3)nc2)cc1)NC(=O)C1CC1 (centres unmarked)	5.66
10) CCCOc1ccc(N2CCC(c3ccc(C(C)C(=O)NCC)cc3)CC2)c(OC)c1 (centres unmarked)	6.49

I: CCCNC(=O)C(C)c1ccc(C2CCN(c3ccc(OCC)cc3)CC2)cc1 (centres unmarked)
II: CC(=O)NC(C)Cc1ccc(C#Cc2ccnc(N(C)c3ccccc3)n2)cc1 (centres unmarked)
INPUT: Input pair: I , II . Output: entry with lower pIC50. Your choice should be expressed through its label.
OUTPUT: II

1: C[C@H](NC(=O)c1cn[nH]c1)c1ccc(C2CN(c3ccc(OCC4CC4)cc3)C2)cc1
2: CC(=O)N[C@@H](C)c1ccc(O[C@@H]2CCN(c3nccc(OCC4CC4)c3F)C2)cc1
3: CCNC(=O)N[C@@H](C)c1ccc(OC2CCN(c3ccnc(OCC4CC4)c3)C2)cc1 (some centres unmarked)
INPUT: Kindly order the items shown according to pIC50, from the highest value down. Put the labels in the order asked and list them.
OUTPUT: 3, 2, 1
(3: 7.12, 2: 6.84, 1: 5.97)

###

// compounds with reported IC50 on human ACC2 (Homo sapiens (Human), UniProt O00763), multi-publication
assayReadout: IC50 (nM)

# count of solved cases: 2
1. CCNC(=O)C(C)c1ccc(C#Cc2ccc(OCC3CCOC3)cc2)cc1 (stereo not drawn)	230
2. CC(=O)N[C@@H](C)c1ccc(O[C@@H]2CCN(c3ccc(OCC4CC(F)(F)C4)cn3)C2)cc1	228

P: CCOc1ccc(C#Cc2ccc(C(C)C(=O)Nc3cc(C)nn3C)cc2)cc1 (stereo not drawn)
Q: CCOc1nccc(C#Cc2ccc(CC(C)NC(C)=O)cc2)n1 (stereo not drawn)
R: CCNC(=O)C(C)c1ccc(C#Cc2ccc(OC)nc2)cc1 (stereo not drawn)
S: CCCNc1nccc(N2CCC(Oc3ccc([C@H](C)NC(=O)N(C)C)cc3)C2)c1F (stereo partly drawn)
INPUT: Put the items in sequence by IC50, from largest down. Kindly provide the labels arranged according to the requested ordering.
OUTPUT: Q, R, P, S
(Q: 8500 nM, R: 2900 nM, P: 230 nM, S: 36 nM)

1: CC(=O)Nc1nc(C)c(C(=O)N[C@@H](C)c2ccc(O[C@@H]3CCN(c4ccc(OC5CC5)cc4C)C3)cc2)s1
2: Cc1ccc(-c2ccc(Cl)cc2)cc1C1=C(O)C2(CCCOC2)NC1=O (stereo not drawn)
INPUT: Of the two listed items, 1 and 2 , which carries the larger IC50 figure? Write the label of whichever entry you select.
OUTPUT: 2

###

Across several studies, compounds have been characterized by their IC50 on human ACC2 (Homo sapiens (Human)); a selection follows.
assayReadout: IC50 (µM)

1. CCOc1ccc(C#Cc2ccc(CC(C)N3CC(C)(C)C3=O)cc2)cc1 (centres unmarked)	1.8
2. COCCN(C)C(=O)N[C@@H](C)c1ccc(OC2CCN(c3ccc(OCC4CC4(F)F)cn3)C2)cc1 (some centres unmarked)	0.444
3. C[C@H](NC(=O)c1ccon1)c1ccc(OC2CCN(c3ccnc(OCC4CC4)c3)C2)cc1 (some centres unmarked)	0.099
4. C[C@H](NC(=O)c1cncs1)c1ccc(CN2Cc3ccc(OCC4CC4)cc3C(F)C2)cc1 (some centres unmarked)	0.059
5. CC(=O)NC(C)Cc1ccc(C#Cc2ccc(OCC3CC3)nc2)cc1 (centres unmarked)	0.32
6. CC(=O)NC(C)Cc1ccc(C#Cc2ccc(OC3CCN(C)C3)cc2)cc1 (centres unmarked)	1.9
7. CC(C(=O)NCC(F)(F)F)c1ccc(O[C@@H]2CCN(c3ccc(OCC4CC4(F)F)cn3)C2)cc1 (some centres unmarked)	0.637
8. CC(=O)N[C@@H](C)Cc1ccc(C#Cc2ccc(Oc3ccccc3)nc2)cc1	0.17
9. CC(=O)N[C@@H](C)c1ccc(OC2CCN(c3ccc(Oc4ccncc4)cc3)C2)cc1 (some centres unmarked)	0.791
10. C[C@H](NC(=O)CC(=O)N(C)C)c1ccc(CN2CCc3cc(OCC4CC4)ccc3C2)cc1	0.459

P: CCCNc1nccc(C#Cc2ccc(CC(C)NC(C)=O)cc2)n1 (centres unmarked)
Q: CC(=O)N[C@@H](C)c1ccc(CN2CCc3c(ccc(OCC4(C(F)(F)F)CC4)c3Cl)C2)cc1
R: CCNC(=O)C(C)c1ccc(C#Cc2ccc(OCC(C)C)cc2)cc1 (centres unmarked)
INPUT: Please order the records by their reported IC50, lowest number first. Dear reader, please state the labels in the requested order.
OUTPUT: Q, R, P

a: C[C@H](NC(=O)c1cnco1)c1ccc(C2CN(c3ccc(OCC4CC4)cc3)C2)cc1
b: Cc1ccc(-c2ccc(F)cc2)cc1C1=C(O)[C@]2(CC[C@@]3(CCCO3)CC2)OC1=O
c: C[C@H](NC(=O)c1ccon1)c1ccc(OC2CCN(c3ccnc(OCC(F)F)c3)C2)cc1 (some centres unmarked)
d: CCOCCO[C@@H]1CC[C@@]2(C1)NC(=O)C(c1cc(-c3ccc(Cl)cc3)ccc1C)=C2O (relative stereo)
INPUT: Rank the 4 compounds: largest IC50 first, smallest last. Labels, ranked as asked.
OUTPUT: d, b, a, c
(d: 6.27 µM, b: 2.5 µM, a: 0.71 µM, c: 0.263 µM)

I: CC(Cc1ccc(C#Cc2ccc(C(C)(C)C)cc2)cc1)NC(=O)C1CC1 (centres unmarked)
II: CC(=O)N[C@@H](C)c1ccc(CN2Cc3ccc(OCC4CC4)cc3C(F)(F)C2)cc1
INPUT: Kindly identify which of I and II has the larger recorded IC50 value. Answer with the label corresponding to your selection.
OUTPUT: I
